Reported IC50 values for the following compounds.
target_under_test: CCR5 (Homo sapiens (Human), UniProt P51681)
Sequence (P51681 whole entry): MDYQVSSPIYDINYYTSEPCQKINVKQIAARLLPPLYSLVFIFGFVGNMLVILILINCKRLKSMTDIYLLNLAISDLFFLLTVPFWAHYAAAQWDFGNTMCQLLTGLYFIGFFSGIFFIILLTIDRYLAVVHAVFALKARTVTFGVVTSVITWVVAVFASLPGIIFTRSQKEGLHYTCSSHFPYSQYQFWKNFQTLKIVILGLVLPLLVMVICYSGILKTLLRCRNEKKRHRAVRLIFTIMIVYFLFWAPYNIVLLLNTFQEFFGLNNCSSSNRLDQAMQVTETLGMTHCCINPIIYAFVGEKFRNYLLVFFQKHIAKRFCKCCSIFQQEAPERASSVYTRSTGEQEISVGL
assay_details: Calcium flux inhibition experiment
Type: cell-based
conditions: HEK293/CCR5-Gα16 cell line, calcium flux; read-out: CCR5 IC50
Please answer using the number first and the unit second.

compound="Cc1nnc(C(C)C)n1C1CC2CCC(C1)N2CC[C@H](NC(=O)Cn1ncnn1)c1ccc(F)s1 (some centres unmarked) [Compound 157]" assay_result="0.00123 µM"
compound="Cc1nnc(C(C)C)n1C1CC2CCC(C1)N2CC[C@H](NC(=O)C1CCCCC1)c1ccc(F)nc1 (some centres unmarked) [Compound 35]" assay_result="0.27 µM"
compound="CCc1ccc([C@H](CCN2C3CCC2CC(n2c(C)nnc2C(C)C)C3)NC(=O)C2CCCC2)s1 (some centres unmarked) [Compound 66]" assay_result="0.00202 µM"
compound="Cc1nnc(C(C)C)n1C1CCN(CC[C@H](NC(=O)C2CCCCC2)c2ccsc2)CC1 [Compound 23]" assay_result="0.0273 µM"
compound="CC(=O)N[C@@H](CCN1C2CCC1CC(n1c(C)nc3c1CCN(C(=O)C1CC1)C3)C2)c1ccc(F)s1 (some centres unmarked) [Compound 132]" assay_result="0.0222 µM"
compound="Cc1nnc(C(C)C)n1C1CCN(CC[C@H](NC(=O)C2CCC(F)(F)CC2)c2cccnc2)CC1 [Compound 5]" assay_result="0.0297 µM"
compound="CC(=O)NC(CCN1C2CCC1CC(n1c(C)nnc1C(C)C)C2)c1cccs1 (centres unmarked) [Compound 4]" assay_result="0.015 µM"
compound="Cc1ccc([C@H](CCN2C3CCC2CC(n2c(C)nnc2C(C)C)C3)NC(=O)Cn2ncnn2)s1 (some centres unmarked) [Compound 153]" assay_result="0.0135 µM"

Q: Quick check: IC50 of Cc1nnc(C(C)C)n1C1CC2CCC(C1)N2CC[C@H](NC(=O)C1CCCC1)c1ccc(F)nc1 (some centres unmarked) [Compound 36] ?
Ans: 0.0318 µM

Q: // returns reported IC50 for input Cc1nnc(C(C)C)n1C1CCN(CCC(NC(=O)C2CCC(F)(F)CC2)c2cccs2)CC1 (centres unmarked) [Compound 1]
Ans: 0.0366 µM

Q: Tell me the measured IC50 of Cc1nnc(C(C)C)n1C1CC2CCC(C1)N2CC[C@H](NC(=O)C1CCC(F)(F)CC1)c1ccsc1 (some centres unmarked) [Compound 22] , please.
Ans: 0.00105 µM
